Origin of the recorded values: paper PMC10052957

Listed here: items and their measured CC50 at 72 h.
test: Cytotoxicity in LLC-MK2 cells (trypan blue); type: cell-based, Monkey (Macaca mulata); details: rhesus monkey (Macaca mulatta), 95% confidence limits in parentheses
Reply with just the number (in µM).

Examples from the recorded data:
{"compound": "O=C(Cn1ccnc1[N+](=O)[O-])NCc1ccccc1 [BZN, benznidazole, reference compound]", "unit.symbol": "µM", "recorded.number": 43.2}
{"compound": "COC(=O)C=Cc1cc(O)c2c(c1)C(C(=O)OC)C(c1ccc(O)c(O)c1)O2 (centres unmarked) [Compound 3]", "unit.symbol": "µM", "recorded.number": 30.8}

Item under review: COC(=O)C=Cc1cc(OC)c2c(c1)C(C(=O)OC)C(c1ccc(O)c(OC)c1)O2 (centres unmarked) [Compound 2] . Reported CC50 at 72 h?
67.6

Item under review: COC(=O)C=Cc1ccc2c(c1)C(C(=O)OC)C(c1ccc(O)cc1)O2 (mixture of isomers) [Compound 1] . Reported CC50 at 72 h?
70.9

Item under review: COC(=O)C=Cc1ccc2c(c1)C(C(=O)OC)C(c1ccc(OC(C)=O)cc1)O2 (centres unmarked) [Compound 4] . Reported CC50 at 72 h?
67.5

---

observation.type: melting point

Item under review: OCCCc1ccc2c(c1)C(CO)C(c1ccc(O)cc1)O2 (stereo not drawn) . Reported melting point?
120 to 121 °C

Item under review: COC(=O)CCc1ccc2c(c1)C(C(=O)OC)C(c1ccc(O)cc1)O2 (stereo not drawn) . Reported melting point?
108 to 110 °C

Item under review: COC(=O)/C=C/c1ccc2oc(-c3ccc(O)cc3)c(C(=O)OC)c2c1 . Reported melting point?
204 to 206 °C

Item under review: COC(=O)C=Cc1ccc2c(c1)C(C(=O)OC)C(c1ccc(OC(C)=O)cc1)O2 (stereo not drawn) . Reported melting point?
103 to 105 °C

Item under review: OCC=Cc1ccc2c(c1)C(CO)C(c1ccc(O)cc1)O2 (stereo not drawn) . Reported melting point?
139 to 140 °C

Item under review: COC(=O)C=Cc1cc(OC)c2c(c1)C(C(=O)OC)C(c1ccc(OC(=O)c3ccccc3)c(OC)c1)O2 (stereo not drawn) . Reported melting point?
109 to 111 °C

---

tested on: Erythrocytes; assay: Hemolytic activity on defibrinated sheep blood; assay type: cell-based; settings: sheep red blood cells, 30 min, 37 °C
Listed here: items and their measured CH50 Erythrocytes.

Examples from the recorded data:
{"molecule": "COC(=O)C=Cc1cc(O)c2c(c1)C(C(=O)OC)C(c1ccc(O)c(O)c1)O2 (stereo not shown)", "CH50 Erythrocytes": ">100 µM"}
{"molecule": "COC(=O)C=Cc1cc(OC)c2c(c1)C(C(=O)OC)C(c1ccc(O)c(OC)c1)O2 (stereo not shown)", "CH50 Erythrocytes": ">100 µM"}
{"molecule": "COC(=O)C=Cc1ccc2c(c1)C(C(=O)OC)C(c1ccc(OC(C)=O)cc1)O2 (stereo not shown)", "CH50 Erythrocytes": ">100 µM"}

Item under review: COC(=O)C=Cc1ccc2c(c1)C(C(=O)OC)C(c1ccc(O)cc1)O2 (mixture of isomers) . Reported CH50 Erythrocytes?
>100 µM

---

Listed here: items and their measured CC50 at 24 h.
assay: Cytotoxicity in murine spleen cells (propidium iodide, flow cytometry); format: cell-based, Swiss mice (Mus musculus); details: Swiss, mouse, 95% confidence limits in parentheses
Reply with just the number (in µM).

Examples from the recorded data:
{"compound": "COC(=O)C=Cc1ccc2c(c1)C(C(=O)OC)C(c1ccc(OC(C)=O)cc1)O2 (centres unmarked) [Compound 4]", "unit.symbol": "µM", "CC50 at 24 h": 51.1}
{"compound": "O=C(Cn1ccnc1[N+](=O)[O-])NCc1ccccc1 [BZN, benznidazole, reference compound]", "unit.symbol": "µM", "CC50 at 24 h": 1.81}
{"compound": "COC(=O)C=Cc1cc(OC)c2c(c1)C(C(=O)OC)C(c1ccc(O)c(OC)c1)O2 (centres unmarked) [Compound 2]", "unit.symbol": "µM", "CC50 at 24 h": 34.2}

Note: attention shifts to another entry.
Item under review: COC(=O)C=Cc1ccc2c(c1)C(C(=O)OC)C(c1ccc(O)cc1)O2 (mixture of isomers) [Compound 1] . Reported CC50 at 24 h?
49.9
